system: CCRF-CEM; test: Resistance factor, ratio of IC50 for vinblastine-resistant human CCRF-CEM cells to IC50 for human CCRF-CEM cells; format: functional

query.smiles: O=C(Nc1ccc(C(=O)NCCN2CCCC2)cc1)Nc1ccc(N(CCCl)CCCl)cc1
assay.system: CCRF-CEM
Ratio IC50: 237.2
//
query.smiles: O=C(CN1CCC(N2CCCCC2)CC1)Nc1cccc(NC(=O)Nc2ccc(N(CCCl)CCCl)cc2)c1
assay.system: CCRF-CEM
Ratio IC50: 0.06
//
query.smiles: CCN(CC)CCC(=O)Nc1ccc(NC(=O)Nc2ccc(N(CCCl)CCCl)cc2)cc1
assay.system: CCRF-CEM
Ratio IC50: 27.57
//
query.smiles: O=C(CN1CCOCC1)Nc1ccc(NC(=O)Nc2ccc(N(CCCl)CCCl)cc2)cc1
assay.system: CCRF-CEM
Ratio IC50: 16.27
//
query.smiles: O=C(CN1CCCC1)Nc1ccc(NC(=O)Nc2ccc(N(CCCl)CCCl)cc2)cc1
assay.system: CCRF-CEM
Ratio IC50: 7.69
//
query.smiles: CN(C)CCNC(=O)c1cccc(NC(=O)Nc2ccc(N(CCCl)CCCl)cc2)c1
assay.system: CCRF-CEM
Ratio IC50: 0.85
//
query.smiles: CN(C)CC(=O)Nc1cccc(NC(=O)Nc2ccc(N(CCCl)CCCl)cc2)c1
assay.system: CCRF-CEM
Ratio IC50: 3.46
//
query.smiles: O=C(CCN1CCCC1)Nc1cccc(NC(=O)Nc2ccc(N(CCCl)CCCl)cc2)c1
assay.system: CCRF-CEM
Ratio IC50: 40.42
//
query.smiles: O=C(Nc1ccc(N(CCCl)CCCl)cc1)Nc1cccc(C(=O)NCCN2CCCC2)c1
assay.system: CCRF-CEM
Ratio IC50: 238.42

----------
assay: Cytotoxicity against human HCT116 cells assessed as growth inhibition after 72 hrs by Alamar Blue assay; assay type: functional, cell-based; conditions: HCT-116, 72 h
pIC50: −log10 of the molar value.
property: pIC50

query.smiles: O=C(CCN1CCCC1)Nc1ccc(NC(=O)Nc2ccc(N(CCCl)CCCl)cc2)cc1
property: pIC50
result: 5.54
--
query.smiles: CCN(CC)CCC(=O)Nc1cccc(NC(=O)Nc2ccc(N(CCCl)CCCl)cc2)c1
property: pIC50
result: 5.49
--
query.smiles: CN(C)CCNC(=O)c1cccc(NC(=O)Nc2ccc(N(CCCl)CCCl)cc2)c1
property: pIC50
result: 5.31
--
query.smiles: CCN(CC)CCC(=O)Nc1ccc(NC(=O)Nc2ccc(N(CCCl)CCCl)cc2)cc1
property: pIC50
result: 5.51
--
query.smiles: O=C(CCN1CCCCC1)Nc1cccc(NC(=O)Nc2ccc(N(CCCl)CCCl)cc2)c1
property: pIC50
result: 5.45
--
query.smiles: O=C(Nc1ccc(N(CCCl)CCCl)cc1)Nc1cccc(C(=O)NCCN2CCCCC2)c1
property: pIC50
result: 5.26
--
query.smiles: O=C(CN1CCCC1)Nc1ccc(NC(=O)Nc2ccc(N(CCCl)CCCl)cc2)cc1
property: pIC50
result: 5.88
--
query.smiles: O=C(CN1CCC(N2CCCCC2)CC1)Nc1cccc(NC(=O)Nc2ccc(N(CCCl)CCCl)cc2)c1
property: pIC50
result: 5.21
--
query.smiles: O=C(CCN1CCCC1)Nc1cccc(NC(=O)Nc2ccc(N(CCCl)CCCl)cc2)c1
property: pIC50
result: 5.29

----------
system: CCRF-CEM; experiment: Resistance factor, ratio of IC50 for vinblastine-resistant human CCRF-CEM cells to IC50 for human CCRF-CEM cells; format: functional
# Ratio IC50 listing for each entry below
property: Ratio IC50

query.smiles: O=C(CCN1CCC(N2CCCCC2)CC1)Nc1cccc(NC(=O)Nc2ccc(N(CCCl)CCCl)cc2)c1
result: 0.94
--
query.smiles: O=C(CCN1CCOCC1)Nc1ccc(NC(=O)Nc2ccc(N(CCCl)CCCl)cc2)cc1
result: 22.09
--
query.smiles: O=C(Nc1ccc(C(=O)NCCN2CCCCC2)cc1)Nc1ccc(N(CCCl)CCCl)cc1
result: 113.58
--
query.smiles: CN(C)CC(=O)Nc1ccc(NC(=O)Nc2ccc(N(CCCl)CCCl)cc2)cc1
result: 4.62
--
query.smiles: O=C(CN1CCCC1)Nc1cccc(NC(=O)Nc2ccc(N(CCCl)CCCl)cc2)c1
result: 0.28

----------
experiment: Cytotoxicity against human HCT116 cells assessed as growth inhibition after 72 hrs by Alamar Blue assay; assay type: functional, cell-based; conditions: HCT-116, 72 h
property: IC50

query.smiles: O=C(Nc1ccc(N(CCCl)CCCl)cc1)Nc1cccc(C(=O)NCCN2CCCC2)c1
result: 4900 nM
//
query.smiles: O=C(CCN1CCC(N2CCCCC2)CC1)Nc1cccc(NC(=O)Nc2ccc(N(CCCl)CCCl)cc2)c1
result: 15700 nM
//
query.smiles: CN(C)CC(=O)Nc1ccc(NC(=O)Nc2ccc(N(CCCl)CCCl)cc2)cc1
result: 850 nM
//
query.smiles: CCN(CC)CC(=O)Nc1ccc(NC(=O)Nc2ccc(N(CCCl)CCCl)cc2)cc1
result: 820 nM
//
query.smiles: CN(C)CC(=O)Nc1cccc(NC(=O)Nc2ccc(N(CCCl)CCCl)cc2)c1
result: 9560 nM
//
query.smiles: O=C(CN1CCCCC1)Nc1ccc(NC(=O)Nc2ccc(N(CCCl)CCCl)cc2)cc1
result: 990 nM

----------
tested on: Mus musculus; experiment: Toxicity in nude mouse xenografted with human HCT116 cells assessed as body weight loss at 30 mg/kg,iv qd administered for 6 days measured on day 13 relative to control; type: organism-based, HCT-116; design: dose 30 mg/kg; settings: in vivo, 144 h
# body weight change relative to control listing for each entry below

query.smiles: CN(C)CCNC(=O)c1cccc(NC(=O)Nc2ccc(N(CCCl)CCCl)cc2)c1
assay.system: Mus musculus
body weight change relative to control [%]: -7
//
query.smiles: CCN(CC)CC(=O)Nc1ccc(NC(=O)Nc2ccc(N(CCCl)CCCl)cc2)cc1
assay.system: Mus musculus
body weight change relative to control [%]: -5
//
query.smiles: CN(C)CC(=O)Nc1ccc(NC(=O)Nc2ccc(N(CCCl)CCCl)cc2)cc1
assay.system: Mus musculus
body weight change relative to control [%]: -3
//
query.smiles: CCc1c2c(nc3ccc(OC(=O)N4CCC(N5CCCCC5)CC4)cc13)-c1cc3c(c(=O)n1C2)COC(=O)[C@]3(O)CC
assay.system: Mus musculus
body weight change relative to control [%]: -3

----------
assay: Toxicity in iv dosed CD-1 (ICR) mouse measured for 14 days; format: organism-based; details: in vivo

query.smiles: CCN(CC)CC(=O)Nc1ccc(NC(=O)Nc2ccc(N(CCCl)CCCl)cc2)cc1
LD50 at 336 h [mg/kg]: 115

----------
experiment: Cytotoxicity against human HCT116 cells assessed as growth inhibition after 72 hrs by Alamar Blue assay; format: functional, cell-based; conditions: HCT-116, 72 h
pIC50: −log10 of the molar value.
# pIC50 listing for each entry below

query.smiles: CN(C)CCC(=O)Nc1cccc(NC(=O)Nc2ccc(N(CCCl)CCCl)cc2)c1
pIC50: 5.48
//
query.smiles: O=C(CN1CCOCC1)Nc1ccc(NC(=O)Nc2ccc(N(CCCl)CCCl)cc2)cc1
pIC50: 5.18
//
query.smiles: O=C(CCN1CCCCC1)Nc1ccc(NC(=O)Nc2ccc(N(CCCl)CCCl)cc2)cc1
pIC50: 5.62
//
query.smiles: O=C(CN1CCC(N2CCCCC2)CC1)Nc1ccc(NC(=O)Nc2ccc(N(CCCl)CCCl)cc2)cc1
pIC50: 5.37
//
query.smiles: O=C(CCN1CCC(N2CCCCC2)CC1)Nc1ccc(NC(=O)Nc2ccc(N(CCCl)CCCl)cc2)cc1
pIC50: 4.96

----------
tested on: CCRF-CEM; assay: Resistance factor, ratio of IC50 for vinblastine-resistant human CCRF-CEM cells to IC50 for human CCRF-CEM cells; assay type: functional
# Ratio IC50 listing for each entry below
property: Ratio IC50

query.smiles: O=C(CN1CCCCC1)Nc1ccc(NC(=O)Nc2ccc(N(CCCl)CCCl)cc2)cc1
result: 4.68

query.smiles: O=C(CN1CCOCC1)Nc1cccc(NC(=O)Nc2ccc(N(CCCl)CCCl)cc2)c1
result: 0.34

query.smiles: O=C(Nc1ccc(N(CCCl)CCCl)cc1)Nc1cccc(C(=O)NCCN2CCCCC2)c1
result: 49.91

query.smiles: CCN(CC)CC(=O)Nc1cccc(NC(=O)Nc2ccc(N(CCCl)CCCl)cc2)c1
result: 0.69

query.smiles: O=C(CN1CCC(N2CCCCC2)CC1)Nc1ccc(NC(=O)Nc2ccc(N(CCCl)CCCl)cc2)cc1
result: 45.8

query.smiles: O=C(CN1CCCCC1)Nc1cccc(NC(=O)Nc2ccc(N(CCCl)CCCl)cc2)c1
result: 0.99

query.smiles: CN(C)CCC(=O)Nc1cccc(NC(=O)Nc2ccc(N(CCCl)CCCl)cc2)c1
result: 27.67

query.smiles: O=C(CCN1CCOCC1)Nc1cccc(NC(=O)Nc2ccc(N(CCCl)CCCl)cc2)c1
result: 1.56

query.smiles: O=C(CCN1CCCCC1)Nc1cccc(NC(=O)Nc2ccc(N(CCCl)CCCl)cc2)c1
result: 15.41
